# tested.target: CAMK2G (human) (UniProt Q13555)
# Sequence (Q13555 whole entry, looked up): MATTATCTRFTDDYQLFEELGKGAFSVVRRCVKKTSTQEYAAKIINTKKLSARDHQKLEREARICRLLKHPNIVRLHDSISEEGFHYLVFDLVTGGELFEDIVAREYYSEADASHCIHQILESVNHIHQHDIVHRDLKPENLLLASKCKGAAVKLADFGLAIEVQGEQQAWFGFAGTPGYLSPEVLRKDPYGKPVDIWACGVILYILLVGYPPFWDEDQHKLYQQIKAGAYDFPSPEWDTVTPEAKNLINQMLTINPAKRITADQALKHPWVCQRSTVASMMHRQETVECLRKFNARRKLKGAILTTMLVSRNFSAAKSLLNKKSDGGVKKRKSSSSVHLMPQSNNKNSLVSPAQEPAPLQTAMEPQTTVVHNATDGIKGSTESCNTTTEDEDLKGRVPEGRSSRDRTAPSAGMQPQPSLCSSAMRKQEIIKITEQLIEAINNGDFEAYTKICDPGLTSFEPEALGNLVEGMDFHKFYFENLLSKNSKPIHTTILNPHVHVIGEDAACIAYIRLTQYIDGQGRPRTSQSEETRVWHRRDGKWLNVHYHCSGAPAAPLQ
# assay.summary: radiometric filter-binding kinase assay, Kinase HotSpot
# condition.context: compound 0.5 µM; ATP 10 µM

| smiles.data | readout.units | residual activity |
| --- | --- | --- |
| COc1cccc(-c2cc(=O)c3ccccc3o2)c1N | % | 96.6 |
| FC(F)(F)c1ccc(/C=C/c2nc(COc3ccc(CCCCn4ccnn4)cc3)co2)cc1 | % | 99 |
| c1ccc(-c2cnc(Nc3ccc(OCCN4CCCC4)cc3)s2)cc1 | % | 66.9 |
| O=c1c(-c2ccc(F)cc2)c(-c2ccncc2)[nH]n1-c1ccc(Cl)cc1 | % | 109 |
| O=c1c2ccccc2[nH]c(=S)n1CCN1CCC(=C(c2ccc(F)cc2)c2ccc(F)cc2)CC1 | % | 97.9 |
| CCCCc1c(-c2ccc(O)cc2)[nH]c2nccnc12 | % | 101 |
